These entries and their values trace back to paper PMC4861070.

Target: T1, BRPF1 PWWP domain (aa 1064–1214) (UniProt P55201 1064-1214)
T1 sequence (looked up): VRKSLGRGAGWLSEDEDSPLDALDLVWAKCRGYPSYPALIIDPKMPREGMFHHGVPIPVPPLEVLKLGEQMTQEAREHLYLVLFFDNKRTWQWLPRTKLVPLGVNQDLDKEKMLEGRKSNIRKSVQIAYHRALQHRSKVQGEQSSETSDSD
Assay: NMR titration
pKd: −log10 of the molar value. Square brackets hold non-standard residues; d marks the D form. Ends that are not written are not given here. pY = N[C@@H](Cc1ccc(OP(=O)(O)O)cc1)C(=O)O; Lys(Me3) = C[N+](C)(C)CCCC[C@H](N)C(=O)O
measured property: pKd

[P] KSAPSTGGV[Lys(Me3)]KPHR[pY]RPGT (peptide, UniProt P84243 28-46, looked up) [histone H3.3K36me3Y41ph peptide (residues 27–45 of H3.3)]
[Q] KSAPSTGGV[Lys(Me3)]KPHRYRPGT (peptide, UniProt P84243 28-46, looked up) [histone H3.3K36me3 peptide (residues 27–45 of H3.3)]
Lower value for measured pKd? Options: P , Q Kindly state the label of the option you pick.
Q
(Q: 2.41, P: 2.74)
